Measured TGI, listed per entry.
- Test system: UACC-62 melanoma
- method: NCI tumour cell line growth inhibition, 48 h
value type: TGI

INSERT INTO results (compound, measured) VALUES
  ('C/C=C/[C@H]1O[C@@H]2C(=C[C@H]1O)C(=O)O[C@H]2C', '33.5 µM'),
  ('CN1C=Cc2nccc3cc4c(c1c23)OCO4', '5.36 µM'),
  ('CC(=O)C(CN(C)C)C(c1ccccc1)c1c(O)c2ccccc2oc1=O (stereo unspecified)', '> 100 µM'),
  ('N#Cc1c(N)nc(N)nc1N[C@H](c1nc2c(F)ccc(Cl)c2c(=O)n1-c1cccnc1)C1CC1', '> 100 µM'),
  ('CCC(=O)Nc1ccccc1C#C/C=C\C#Cc1ccccc1C(F)(F)F', '> 50 µM'),
  ('Fc1cccc(Cl)c1C1SCc2nc3cc4ccccc4cc3n21 (stereo unspecified)', '> 100 µM');

====

- Test system: U251 CNS
- method: NCI tumour cell line growth inhibition, 48 h
Measured TGI, listed per entry.
value type: TGI (µM)

INSERT INTO assay_data (molecule, modifier_sign, measured) VALUES
  ('COC(=O)N/N=C(/CCC(=O)Nc1ccc(C)c(C)c1)CC(=O)C(C)(C)C', '>', 100),
  ('COC(=O)C1=C(C(=O)OC)SC(=C2S[C@@H]3[C@@H]4C[C@H]([C@@H]3S2)[C@H]2C(=O)OC(=O)[C@@H]42)S1', '>', 100),
  ('O=[N+]([O-])/C(C(Cl)=C(Cl)Cl)=C(\Nc1ccccc1)n1nnc2ccccc21', '>', 100),
  ('COc1ccc(/C(Cl)=C(\c2ccc(OCCN(C)C)cc2)c2ccc(OC(=O)C(C)(C)C)cc2)cc1', '=', 26.5),
  ('CC1Cc2cc(O)c(O)cc2-c2cc(O)c(O)cc2CC1C (centres undefined)', '=', 32.6),
  ('COc1cc(-c2n/c(=C\c3c(O)[nH]c4cc(Cl)ccc34)cc3c2=Nc2ccccc2-3)cc(OC)c1OC', '=', 3.36),
  ('O=c1oc2ccc(Cl)cc2cc1-c1cn2ccccc2n1', '>', 40.2),
  ('COc1ccc(N=Nc2c(C)c(C#N)c(=S)n(C3OC(CO)C(O)C(O)C3O)c2C)cc1 (centres undefined)', '>', 100),
  ('CC(C)(C)OC(=O)c1ccc(NCC2=CC(=O)C=CC2=O)cc1', '=', 27.1);

====

- Test system: CAKI-1 renal
- method: NCI tumour cell line growth inhibition, 48 h
value type: TGI

INSERT INTO results (molecule, measured) VALUES
  ('CC(CNCCCNCCNCCCNCO)[N+](=O)[O-] (configuration not stated)', '18.6 µM'),
  ('C/C(=N\N=C(\[Se])N(C)C)c1ccccn1', '16.1 µM'),
  ('CCCCN[C@H]1C2C3CC4C5CC(C42)C1(C)C53 (some centres not stated)', '> 100 µM'),
  ('C/C(=N\NC(=S)N1CC2CCC(CC2)C1)c1cccc(C)n1', '14.2 µM'),
  ('Fc1cccc(Cl)c1C1SCc2nc3cc4ccccc4cc3n21 (configuration not stated)', '> 100 µM'),
  ('CC(C)(CCCCC(C)(C)C1NC(=O)N1)C1NC(=O)N1', '> 10 µM'),
  ('O=C(O)CNn1c(SCC(=O)O)nnc(/C=C/c2c(O)ccc3ccccc23)c1=O', '> 100 µM'),
  ('CCCCCCOc1ccc(C(=O)N(C)O)cc1', '> 91.2 µM'),
  ('[O-][N+]1=NC(c2ccccc2)=C1c1ccccc1', '> 50 µM'),
  ('C/C=C/[C@H]1O[C@@H]2C(=C[C@H]1O)C(=O)O[C@H]2C', '17.1 µM'),
  ('COc1c(-c2ccc(O)c(O)c2)oc2c(O)c(O)cc(O)c2c1=O', '> 100 µM'),
  ('NC(=O)N/N=C(/Cc1nc2ccc(C(=O)c3ccccc3)cc2[nH]c1=O)C(=O)Nc1ccc(C(F)(F)F)cc1[N+](=O)[O-]', '> 100 µM'),
  ('CCOC(=O)C1=C(C)N(NC(N)=O)C(C)(O)C12CCOC2=O (configuration not stated)', '> 100 µM'),
  ('O=c1[nH]nc(Cn2c3ccc(Br)cc3c3nc4ccccc4nc32)n1C1CCCCC1', '> 100 µM'),
  ('N#Cc1c(O)cc(=O)n2c1[nH]c1ccccc12', '> 100 µM'),
  ('Cc1ccc(C2=C(c3ccc(C)cc3)C3(c4ccc(C)cc4)C4C(=O)c5ccccc5C(=O)C4C2(c2ccc(C)cc2)S3=O)cc1 (configuration not stated)', '> 100 µM'),
  ('O=[N+]([O-])/C(C(Cl)=C(Cl)Cl)=C(\Nc1ccccc1)n1nnc2ccccc21', '> 100 µM');

====

- Test system: M14 melanoma
- method: NCI tumour cell line growth inhibition, 48 h
value type: log10 TGI (log10 of the value in µM)

INSERT INTO assay_data (compound, target_under_test, measured) VALUES
  ('NCCOc1ccccc1/C=C1\c2ccccc2-c2ccc([N+](=O)[O-])cc21', 'M14 melanoma', 0.48),
  ('CN(C)CC(C(=O)Cc1ccccc1)c1ccccc1 (stereo not given)', 'M14 melanoma', 0.70),
  ('NC(=O)/C=c1/c2ccccc2n2nc3ccccc3c12', 'M14 melanoma', 1.86),
  ('CC(=O)C1=C(C)N(C)C2(O)C=CC(=O)C3=C(O)c4ccccc4C(=O)C312 (stereo not given)', 'M14 melanoma', 0.90),
  ('CC1(C)C(=O)/C=C\C(=O)C(C)(C)C(=O)/C=C\C(=O)C(C)(C)C(=O)/C=C\C(=O)C(C)(C)C(=O)/C=C\C1=O', 'M14 melanoma', 1.69),
  ('CC(CNCCCNCCNCCCNCO)[N+](=O)[O-] (stereo not given)', 'M14 melanoma', 1.37),
  ('N#Cc1c(Cl)nc2ccccc2c1N=[N+]=[N-]', 'M14 melanoma', 0.81),
  ('Cc1sc(C)c2c1C(=O)CC2N (stereo not given)', 'M14 melanoma', 1.44),
  ('O=C(O)CNn1c(SCC(=O)O)nnc(/C=C/c2c(O)ccc3ccccc23)c1=O', 'M14 melanoma', 1.64),
  ('O=C1N[C@@H]2c3c(Br)sc(Br)c3C(=O)[C@@H]2O1', 'M14 melanoma', 0.58),
  ('CN1CCN(c2nc(NCCCNc3ccnc4cc(Cl)ccc34)c3ccccc3n2)CC1', 'M14 melanoma', 0.58);

====

- Test system: OVCAR-4 ovarian
- method: NCI tumour cell line growth inhibition, 48 h
Where a SMILES comes first, the peptide text is derived from it. [ ]: non-standard residue; d: D form. The star is where a group is joined. ξ: configuration not given here. ξF = NC(Cc1ccccc1)C(=O)O; Cbz = O=C(OCc1ccccc1)*; Aib = CC(C)(N)C(=O)O
Measured TGI, listed per entry.
value type: TGI

INSERT INTO results (molecule, measured) VALUES
  ('COc1ccccc1N=N/C(=N\NC(=O)c1ccc(C)cc1)c1ccc(N(CCC#N)CCC#N)cc1C', '> 100 µM'),
  ('C=C1C(=O)OC2CC(=C)C3CC=C(C)C3CC12 (centres undefined)', '> 100 µM'),
  ('CSc1nc(NC2OC(COC(C)=O)C(OC(C)=O)C(OC(C)=O)C2OC(C)=O)c(-c2csc(N)n2)c(=O)n1C (centres undefined)', '55.1 µM'),
  ('CCc1cc2ncc(CN3CCN(c4ccc(C(=O)NC)nc4)CC3)cc2[nH]c1=O', '> 100 µM'),
  ('COc1ccc(-c2cc(-c3cc(Cl)cc(Br)c3O)[nH]c(=O)n2)cc1', '26.5 µM'),
  ('Fc1cccc(Cl)c1C1SCc2nc3cc4ccccc4cc3n21 (centres undefined)', '> 100 µM'),
  ('CC12CO[C@@](C)(CC(S(=O)(=O)c3ccccc3)C1)O2 (some centres undefined)', '> 100 µM'),
  ('COc1cc([C@@]23OC[C@@H]4[C@@H](OC[C@@H]42)c2cc4c(cc23)OCO4)cc(OC)c1OC', '> 100 µM'),
  ('CC(C)(C)OC(=O)c1ccc(NCC2=CC(=O)C=CC2=O)cc1', '22 µM'),
  ('CN(C)CC(C(=O)Cc1ccccc1)c1ccccc1 (centres undefined)', '5.87 µM'),
  ('COc1cc2ncnc(Nc3ccc4c(cnn4Cc4ccccc4)c3)c2cc1OC', '> 25 µM'),
  ('C[n+]1c(-c2ccc(/C=N/NC(=O)c3ccc(C(=O)N/N=C/c4ccc(-c5cn6ccccc6[n+]5C)cc4)cc3)cc2)cn2ccccc21', '> 1000 µM'),
  ('CCCNC(=O)c1ccc(Cl)cc1Cl', '> 100 µM'),
  ('O=S1(=O)CCCS(=O)(=O)C(c2ccccc2)=C1c1ccccc1', '> 100 µM'),
  ('O=C1c2ccccc2CC12Cc1ccccc1C2', '> 100 µM'),
  ('Cc1ccc(C2=Nc3c(N)ncnc3NC(c3ccc4c(c3)OCO4)C2)cc1 (centres undefined)', '74.9 µM'),
  ('N#Cc1c(Cl)nc2ccccc2c1N=[N+]=[N-]', '4.24 µM'),
  ('O=C1N[C@@H]2c3c(Br)sc(Br)c3C(=O)[C@@H]2O1', '3.43 µM'),
  ('C=C1C2CC(OC(C)=O)C3(C)C(c4ccoc4)OC(=O)[C@@H](O)[C@]13OC1C[C@H](OC(C)=O)C(C)(C)[C@H](CC(=O)OC)[C@]12C (some centres undefined)', '> 100 µM'),
  ('Nc1c(N2CCOCC2)c(=O)nc2[nH]/c(=C\c3ccccc3)c(=O)n12', '> 100 µM'),
  ('Cn1c2ccccc2c2c3[nH][nH]c(=O)c3c3c4ccccc4[nH]c3c21', '13.2 µM'),
  ('O=[N+]([O-])c1ccccc1C=NC12CC3CC(CC(C3)C1)C2', '> 100 µM'),
  ('COC(=O)C(C)(C)NC(=O)C(Cc1ccccc1)NC(=O)C(C)(C)NC(=O)OCc1ccccc1 (centres undefined) (Cbz-[Aib]-[ξF]-[Aib]-OMe)', '> 100 µM'),
  ('CCOC(=N)CC(=O)Nc1cccc(Cl)c1', '> 100 µM'),
  ('O=C(O)CN1CCN(CC(=O)N2CCN(C(=O)OCc3ccccc3)CC2)CCN(CC(=O)O)CCN(CC(=O)N2CCN(C(=O)OCc3ccccc3)CC2)CC1', '> 100 µM'),
  ('COC(=O)[C@@H](Cc1ccccc1)N1O[C@]12CCCC[C@@H]2NC(=O)OC(C)(C)C (some centres undefined)', '> 100 µM'),
  ('Cc1cccc(N2C(=O)C(=O)C(c3nc4ccccc4s3)/C(=N/NC(=S)NN)C2=O)c1C (centres undefined)', '> 100 µM'),
  ('CN1CCN(c2nc(NCCCNc3ccnc4cc(Cl)ccc34)c3ccccc3n2)CC1', '12.5 µM'),
  ('CO[C@@H]1C[C@H]2N3CC[C@@]2(c2cc4c(cc2C3)OCO4)[C@H]2O[C@@H]12', '> 100 µM'),
  ('N#Cc1c(O)cc(=O)n2c1[nH]c1ccccc12', '> 100 µM'),
  ('Cc1cc(C(=O)O)c(C)n1-c1cccc(C(=O)O)c1', '> 100 µM'),
  ('CCC(C)C1NC(=O)C2CCCN2C(=O)CNC(=O)C(C)NC(=O)C(Cc2ccccc2)NC(=O)C(C(C)C)NC1=O (centres undefined) (cyclo(GPIVFA); configuration not given here)', '> 100 µM'),
  ('CCCCNC(=O)Oc1ccc(/C(=C(/C)Cc2ccc(OC)cc2)c2ccc(OCCN3CCCC3)cc2)cc1', '4.26 µM'),
  ('Cc1ccc(/C=C2\CCCC(CN(C)C)C2=O)cc1 (centres undefined)', '3.8 µM'),
  ('N=C(N)c1ccc(-c2ccc(-c3cccs3)s2)s1', '4.16 µM'),
  ('O=C1NC(=O)/C(=C/c2ccc(S(=O)(=O)N/N=C\C(O)C(O)C(O)C(O)CO)cc2)N1 (centres undefined)', '> 100 µM'),
  ('O=C1NC(N2CCCCC2)=N/C1=C\c1ccccc1O', '91.4 µM'),
  ('COc1ccc(/C=C2\CN(Cc3cn(CCNc4ccnc5cc(Cl)ccc45)nn3)C/C(=C\c3ccc(OC)c(OC)c3)C2=O)cc1OC', '> 100 µM'),
  ('CCOC(=O)[C@H]1Nc2ccc([N+](=O)[O-])cc2C2c3ccccc3CC21 (some centres undefined)', '49.8 µM');
